- System: Malme-3M
- assay-notes: NCI tumour cell line growth inhibition, 48 h
Active and inactive are the calls of the source. Cut-off read from the data, not from the text of the source: active = GI50 up to about 1.1 µM and inactive = higher.
Listing of entries alongside the reported GI50.

# compound, test-system, GI50
data = [
    ("COc1ccc(/C=C2/C(=O)N(C(=O)c3ccccc3O)N=C2C)cc1OC", "Malme-3M", "0.849 µM (active)"),
    ("COc1ccc(-c2nc(N)c3ncn(C4OC(CO)C(O)C4O)c3n2)cc1 (configuration not stated)", "Malme-3M", "> 100 µM (inactive)"),
    ("CCCSc1ccc2[nH]c(/N=C/c3ccco3)cc2c1", "Malme-3M", "67.9 µM (inactive)"),
    ("CC(=O)C(C)CCOC1(C)OCCC1C (configuration not stated)", "Malme-3M", "> 100 µM (inactive)"),
    ("CC(=O)OC12CC(C)C3(O)C4C=C(C)C(=O)[C@@]4(O)CC(CO)=C[C@H]3C1C2(C)C (some centres not stated)", "Malme-3M", "> 10 µM (inactive)"),
    ("COc1cc(C2C(C(=O)Nc3ccc([N+](=O)[O-])cc3)=C(C)NC(C)=C2C(=O)Nc2ccc([N+](=O)[O-])cc2)ccc1O", "Malme-3M", "20.8 µM (inactive)"),
    ("COCCOC1=CC(=O)c2c(O)ccc(O)c2C1=O", "Malme-3M", "0.167 µM (active)"),
    ("CC(=O)N1CC[N+](C)(CCCCN2c3ccccc3Sc3cc(N=[N+]=[N-])ccc32)CC1", "Malme-3M", "> 100 µM (inactive)"),
    ("Cn1ncc2c(c1=O)Nc1ccccc1S2(=O)=O", "Malme-3M", "> 100 µM (inactive)"),
    ("OC(C1CCCCCCCCCC1)C(O)C1CCCCCCCCCC1 (configuration not stated)", "Malme-3M", "> 100 µM (inactive)"),
    ("Cc1ccc(Cc2n[nH]c(=O)n2/N=C\\CC/C=N\\n2c(Cc3ccc(C)cc3)n[nH]c2=O)cc1", "Malme-3M", "33.2 µM (inactive)"),
    ("CCCCCCCCCCCC[N+](CCCCCCCCCCCC)=C1SCCS1", "Malme-3M", "6.64 µM (inactive)"),
]
